Sourced from the RNAGym collection of RNA variant scans (doi:10.7554/elife.80360)

B1: HDV Ribozyme (parent)
chain: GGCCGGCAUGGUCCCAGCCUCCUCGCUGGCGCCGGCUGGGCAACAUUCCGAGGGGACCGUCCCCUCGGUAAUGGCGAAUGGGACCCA

Variants of: B1
Assay: self-cleavage, relative activity (ratio to wild type); higher = more cleavage; co-transcriptional
Label yes when self-cleavage >= 0.3; otherwise no.

Observe how each entry below is paired with its result.
MUTATIONS: U20A C30U
DISCRETE LABEL: no

MUTATIONS: G35U G73U
DISCRETE LABEL: no

MUTATIONS: U46C U72G
DISCRETE LABEL: yes

Does self-cleavage meet or surpass 0.3 for G82U C85A ? no

Does self-cleavage meet or surpass 0.3 for G2A G74A ? no

Does self-cleavage meet or surpass 0.3 for C62G C63G ? yes

Does self-cleavage meet or surpass 0.3 for C24A C26U ? yes
